test system: MPNST multicellular tumor spheroids, viability % test/control; experiment: Anticancer human tumor MPNST cell line growth inhibition; conditions: curve of first compound; second compound 1 µM;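 note: spheroids exposed to agents for seven days after three days of growth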
As shown below, each of these compounds has a reported pIC50 value.
Notebook: values listed as pIC50 are -log10 of the concentration (mol/L).

Task: // fetch pIC50 for Cn1ncnc1[C@H]1c2n[nH]c(=O)c3cc(F)cc(c23)N[C@@H]1c1ccc(F)cc1 + Cn1nnc2c(C(N)=O)ncn2c1=O ; system: MPNST multicellular tumor spheroids, viability % test/control
Result: 5.56

Task: // fetch pIC50 for CC1COCCN1c1cc(-c2ccnn2C)c2ccnc(-c3ccn[nH]3)c2n1 (stereo not given) + Cn1nnc2c(C(N)=O)ncn2c1=O ; system: MPNST multicellular tumor spheroids, viability % test/control
Result: 6.70

Task: // fetch pIC50 for O=C(c1cc(Cc2n[nH]c(=O)c3ccccc23)ccc1F)N1CCN(C(=O)C2CC2)CC1 + Cn1nnc2c(C(N)=O)ncn2c1=O ; system: MPNST multicellular tumor spheroids, viability % test/control
Result: 4.75

Task: // fetch pIC50 for Cc1sc2c(c1C)C(c1ccc(Cl)cc1)=NC(CC(=O)Nc1ccc(O)cc1)c1nnc(C)n1-2 (stereo not given) + Cn1nnc2c(C(N)=O)ncn2c1=O ; system: MPNST multicellular tumor spheroids, viability % test/control
Result: 5.84

Task: // fetch pIC50 for COc1ccc([C@@H](O)c2cc(-c3ncnc4cc(N5CCOCC5)ccc34)c(F)cc2Cl)nn1 + Cn1nnc2c(C(N)=O)ncn2c1=O ; system: MPNST multicellular tumor spheroids, viability % test/control
Result: 5.78
